Target: FjDusD (Flavobacterium johnsoniae, UniProt A5FBI4)
Construct: signal peptide evaluated by SignalP
Sequence (A5FBI4 22-494): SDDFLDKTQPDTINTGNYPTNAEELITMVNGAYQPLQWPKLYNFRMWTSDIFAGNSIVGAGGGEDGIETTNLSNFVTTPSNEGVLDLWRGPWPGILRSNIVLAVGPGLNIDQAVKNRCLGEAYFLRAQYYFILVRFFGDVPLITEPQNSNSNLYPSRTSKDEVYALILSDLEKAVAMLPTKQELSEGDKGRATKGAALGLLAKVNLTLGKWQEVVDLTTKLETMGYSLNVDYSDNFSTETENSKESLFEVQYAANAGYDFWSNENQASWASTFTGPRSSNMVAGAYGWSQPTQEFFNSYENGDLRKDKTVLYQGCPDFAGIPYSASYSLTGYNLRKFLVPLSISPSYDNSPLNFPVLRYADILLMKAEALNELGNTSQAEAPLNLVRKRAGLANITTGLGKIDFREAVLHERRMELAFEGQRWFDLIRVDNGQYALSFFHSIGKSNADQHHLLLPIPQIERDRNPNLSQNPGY
Assay: isothermal titration calorimetry
Conditions: 10 mM HEPES-NaOH pH 7.0, 25 °C; one-site model (n = 1)
parameter: Kd (µM)

INSERT INTO assay_data (compound, assayed_target, measurement_units, value) VALUES
  ('OC[C@H]1O[C@H](OC[C@H]2O[C@H](OC[C@H]3O[C@H](OC[C@H]4O[C@H](OC[C@H]5O[C@H](OC[C@H]6OC(O)[C@H](O)[C@@H](O)[C@@H]6O)[C@H](O)[C@@H](O)[C@@H]5O)[C@H](O)[C@@H](O)[C@@H]4O)[C@H](O)[C@@H](O)[C@@H]3O)[C@H](O)[C@@H](O)[C@@H]2O)[C@H](O)[C@@H](O)[C@@H]1O (stereo partly shown)', 'FjDusD (Flavobacterium johnsoniae, UniProt A5FBI4)', 'µM', 467),
  ('OC[C@H]1O[C@H](OC[C@H]2O[C@H](OC[C@H]3O[C@H](OC[C@H]4O[C@H](OC[C@H]5OC(O)[C@H](O)[C@@H](O)[C@@H]5O)[C@H](O)[C@@H](O)[C@@H]4O)[C@H](O)[C@@H](O)[C@@H]3O)[C@H](O)[C@@H](O)[C@@H]2O)[C@H](O)[C@@H](O)[C@@H]1O (stereo partly shown)', 'FjDusD (Flavobacterium johnsoniae, UniProt A5FBI4)', 'µM', 226),
  ('OC[C@H]1O[C@H](OC[C@H]2O[C@H](OC[C@H]3O[C@H](OC[C@H]4OC(O)[C@H](O)[C@@H](O)[C@@H]4O)[C@H](O)[C@@H](O)[C@@H]3O)[C@H](O)[C@@H](O)[C@@H]2O)[C@H](O)[C@@H](O)[C@@H]1O (stereo partly shown)', 'FjDusD (Flavobacterium johnsoniae, UniProt A5FBI4)', 'µM', 326),
  ('OC[C@H]1O[C@H](OC[C@H]2O[C@H](OC[C@H]3OC(O)[C@H](O)[C@@H](O)[C@@H]3O)[C@H](O)[C@@H](O)[C@@H]2O)[C@H](O)[C@@H](O)[C@@H]1O (stereo partly shown)', 'FjDusD (Flavobacterium johnsoniae, UniProt A5FBI4)', 'µM', 621);

Where do these numbers come from? They come from paper PMC10316084.
